study system: human GPR120 (Homo sapiens)
Construct: expressed in transfected cells; host or cells: CHO-K1 coexpressing Gα16 and mitochondrial apoaequorin
measurement notes: Human GPR120 Calcium-Release Assay (aequorin luminescence, CHO-K1 cells)
Format: cell-based
protocol conditions: pEC50=−log(EC50) from curve fit; short variant of human GPR120 in CHO-K1 with Gα16 and apoaequorin; read-out: Ca2+ pEC50 (converted)
property name: EC50 (µM)

# compound string, EC50 / µM
rows = [
    ("Cc1cc(OC2CCC2)nc(N2Cc3ccccc3S2(=O)=O)c1", 0.0794),
]

(a) O=S1(=O)c2ccccc2CN1c1ccnc(Oc2ccc(OC(F)(F)F)cc2Cl)n1
(b) CNC(=O)c1cc(N2Cc3ccccc3S2(=O)=O)nc(Oc2ccc(Cl)cc2)n1
(c) Cc1cc(N2Cc3ccccc3S2(=O)=O)nc(Oc2ccc(F)cc2)n1
List the 3 entries from lowest EC50 to highest EC50 value. Put the labels in the requested order and list them out.
c, a, b

* * *

study system: human GPR120 (Homo sapiens, UniProt Q5NUL3)
Construct: host or cells: CHO-K1
measurement notes: GPR120 β-Arrestin Recruitment Assay (PathHunter, CHO-K1 cells)
Type: cell-based
protocol conditions: pEC50=−log(EC50) from curve fit; CHO-K1 cells, 90 min incubation; read-out: β-Arr pEC50 (converted)
Sequence (Q5NUL3 1-377 isoform Q5NUL3-1): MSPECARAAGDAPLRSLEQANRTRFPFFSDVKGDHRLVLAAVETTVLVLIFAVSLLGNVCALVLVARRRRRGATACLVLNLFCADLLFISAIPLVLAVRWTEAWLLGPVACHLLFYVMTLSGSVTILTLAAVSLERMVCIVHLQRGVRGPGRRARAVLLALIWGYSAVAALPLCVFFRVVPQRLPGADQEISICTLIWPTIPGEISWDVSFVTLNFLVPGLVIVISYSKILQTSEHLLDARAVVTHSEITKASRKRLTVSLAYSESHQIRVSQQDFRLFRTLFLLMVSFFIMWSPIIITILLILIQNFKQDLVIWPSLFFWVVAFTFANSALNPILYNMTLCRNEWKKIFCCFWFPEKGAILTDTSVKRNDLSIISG
Sequence (P32121 whole entry partner): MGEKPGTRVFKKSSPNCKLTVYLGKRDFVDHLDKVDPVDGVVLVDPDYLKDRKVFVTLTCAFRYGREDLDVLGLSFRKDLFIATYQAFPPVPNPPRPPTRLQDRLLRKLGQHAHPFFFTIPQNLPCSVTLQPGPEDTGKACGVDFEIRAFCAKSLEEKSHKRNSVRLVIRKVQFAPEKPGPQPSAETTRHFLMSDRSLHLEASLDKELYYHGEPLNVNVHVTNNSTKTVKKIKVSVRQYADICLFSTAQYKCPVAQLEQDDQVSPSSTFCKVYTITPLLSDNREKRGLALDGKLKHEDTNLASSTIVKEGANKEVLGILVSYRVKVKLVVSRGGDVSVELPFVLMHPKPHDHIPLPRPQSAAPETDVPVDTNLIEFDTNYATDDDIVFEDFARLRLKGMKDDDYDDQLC
property name: EC50 (µM)

# compound string, property name, recorded value
measured = [
    ("Cc1cc(N2Cc3ccccc3S2(=O)=O)nc(Oc2ccc(Cl)cc2)n1", "EC50", 0.251),
]

(1) O=S1(=O)c2ccccc2CN1c1ccnc(Oc2cncc(Br)c2)n1
(2) Cc1cc(Cl)cc(Oc2nccc(N3Cc4ccccc4S3(=O)=O)n2)c1
Hi, I'm comparing 1 with 2 and wondering which one has the bigger number for EC50. Any idea? Please reply using the label of the selected record.
1
(1: 12.6 µM, 2: 5.01 µM)

* * *

study system: human GPR120 (Homo sapiens, UniProt Q5NUL3)
Construct: expressed in transfected cells; host or cells: CHO-K1 coexpressing Gα16 and mitochondrial apoaequorin
Sequence (Q5NUL3 1-361): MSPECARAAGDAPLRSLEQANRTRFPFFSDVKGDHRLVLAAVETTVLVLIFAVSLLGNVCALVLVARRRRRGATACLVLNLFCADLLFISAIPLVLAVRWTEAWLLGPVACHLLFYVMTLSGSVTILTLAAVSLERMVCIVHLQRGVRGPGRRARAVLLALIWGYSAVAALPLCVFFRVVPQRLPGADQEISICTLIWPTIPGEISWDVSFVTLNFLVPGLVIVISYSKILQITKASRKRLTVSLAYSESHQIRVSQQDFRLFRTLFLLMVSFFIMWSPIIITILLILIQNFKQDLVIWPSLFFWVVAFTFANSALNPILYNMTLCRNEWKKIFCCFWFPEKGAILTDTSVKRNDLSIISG
measurement notes: Human GPR120 Calcium-Release Assay (aequorin luminescence, CHO-K1 cells)
Type: cell-based
protocol conditions: pEC50=−log(EC50) from curve fit; short variant of human GPR120 in CHO-K1 with Gα16 and apoaequorin; read-out: Ca2+ pEC50 (converted)
property name: EC50 (µM)

# compound string, study system, scale unit, EC50
records = [
    ("COc1cc(N2Cc3ccccc3S2(=O)=O)nc(OC2CC(F)(F)C2)n1", "human GPR120 (Homo sapiens, UniProt Q5NUL3)", "µM", 0.631),
]

(I) O=S1(=O)c2ccccc2CN1c1ccnc(Oc2ccccc2F)n1
(II) Cc1cc(Oc2ccc(Cl)cc2)nc(N2Cc3ccccc3S2(=O)=O)n1
Hi, I'm comparing I with II and wondering which one has the bigger number for EC50. Any idea? Please reply using the label of the selected record.
II
(II: 1.58 µM, I: 0.794 µM)

* * *

study system: human GPR120 (Homo sapiens)
Construct: host or cells: CHO-K1
measurement notes: GPR120 β-Arrestin Recruitment Assay (PathHunter, CHO-K1 cells)
Format: cell-based
protocol conditions: pEC50=−log(EC50) from curve fit; CHO-K1 cells, 90 min incubation; read-out: β-Arr pEC50 (converted)
property name: EC50 (nM)

Below: 3 compounds and their reported EC50.
# compound, property name, recorded value
rows = [
    ("O=S1(=O)c2ccccc2CN1c1cc(C(F)(F)F)nc(Oc2ccccc2)n1", "EC50", 794),
    ("O=S1(=O)c2ccccc2CN1c1cncc(Oc2cccnc2)n1", "EC50", 39800),
    ("Cc1cc(OC2CC(F)(F)C2)nc(N2Cc3ccccc3S2(=O)=O)n1", "EC50", 3160),
]

(1) CC1c2ccccc2S(=O)(=O)N1c1ccnc(Oc2cccnc2)n1 (stereo not drawn)
(2) COc1cc(N2Cc3ccccc3S2(=O)=O)nc(Oc2ccc(Cl)cc2)n1
(3) O=S1(=O)c2ccccc2CN1c1ccnc(OC2CCCC2)n1
(4) CNC(=O)c1cc(N2Cc3ccccc3S2(=O)=O)nc(Oc2ccc(Cl)cc2)n1
List the 4 entries from lowest EC50 to highest EC50 value. Put the labels in the requested order and list them out.
2, 3, 4, 1
(2: 398 nM, 3: 1580 nM, 4: 2510 nM, 1: 12600 nM)

* * *

Readings of EC50 for the listed compounds
study system: human GPR120 (Homo sapiens, UniProt Q5NUL3)
Construct: host or cells: CHO-K1
measurement notes: GPR120 β-Arrestin Recruitment Assay (PathHunter, CHO-K1 cells)
Type: cell-based
protocol conditions: pEC50=−log(EC50) from curve fit; CHO-K1 cells, 90 min incubation; read-out: β-Arr pEC50 (converted)

Below: 3 compounds and their reported EC50.
# compound string, study system, property name, recorded value
data = [
    ("CN(C)c1cccc(Oc2nccc(N3Cc4ccccc4S3(=O)=O)n2)c1", "human GPR120 (Homo sapiens, UniProt Q5NUL3)", "EC50", "3.16 µM"),
    ("O=C(COc1nccc(N2Cc3ccccc3S2(=O)=O)n1)Nc1ccccc1", "human GPR120 (Homo sapiens, UniProt Q5NUL3)", "EC50", "> 31.6 µM"),
    ("COc1ccc2c(c1)S(=O)(=O)N(c1cccc(Oc3cccnc3)n1)C2", "human GPR120 (Homo sapiens, UniProt Q5NUL3)", "EC50", "> 31.6 µM"),
]

Query the reported EC50 for human GPR120 (Homo sapiens, UniProt Q5NUL3); item: COc1ccc2c(c1)CN(c1ccnc(Oc3cccnc3)n1)C2=O
> 31.6 µM

Consider next the compound O=S1(=O)c2ccccc2CN1c1ncnc(Oc2cccnc2)n1 in the same way.
15.8 µM

Consider next the compound O=S1(=O)c2cc(Cl)ccc2CN1c1ccnc(Oc2cccnc2)n1 in the same way.
> 31.6 µM

* * *

study system: human GPR120 (Homo sapiens)
Construct: host or cells: CHO-K1
measurement notes: GPR120 β-Arrestin Recruitment Assay (PathHunter, CHO-K1 cells)
Format: cell-based
protocol conditions: pEC50=−log(EC50) from curve fit; CHO-K1 cells, 90 min incubation; read-out: β-Arr pEC50 (converted)
Experimental: This in vitro assay tests compounds' ability to activate intracellular signaling via 3-Arrestin recruitment to heterologously expressed human GPR120. […] Test compounds were dissolved in 100% DMSO to a concentration of 10 mM to provide stock solutions. […] Chemiluminescence was read using an EnVision plate reader (PerkinElmer), raw data were expressed as relative light units (RLU). […]
property name: EC50 (µM)

Below: 8 compounds and their reported EC50.
# compound, recorded value
rows = [
    ("O=S1(=O)c2ccccc2CN1c1ccnc(Oc2ccc(C(F)(F)F)cc2)n1", 6.31),
    ("COc1cc(N2Cc3ccccc3S2(=O)=O)nc(Oc2ccccc2)n1", 0.158),
    ("O=S1(=O)c2ccccc2CN1c1ccnc(Oc2ccc(F)cc2)n1", 1),
    ("O=S1(=O)c2ccccc2CN1c1ccnc(Oc2ccc(OCc3ccccc3)cc2)n1", 1.58),
    ("Cc1cc(Oc2nccc(N3Cc4ccccc4S3(=O)=O)n2)ccc1Cl", 1.58),
    ("Cc1cc(Oc2ccc(F)cc2)nc(N2Cc3ccccc3S2(=O)=O)n1", 3.98),
    ("Cc1cc(Oc2ccccc2)nc(N2Cc3ccccc3S2(=O)=O)n1", 2.51),
    ("O=S1(=O)c2ccccc2CN1c1ccnc(OCC2CCCCC2)n1", 2.51),
]

(a) O=S1(=O)c2ccccc2CN1c1ccnc(OCC2CCC2)n1
(b) Cc1cc(N2Cc3ccccc3S2(=O)=O)nc(Oc2cccnc2)n1
(c) CN1CCC(Oc2nccc(N3Cc4ccccc4S3(=O)=O)n2)C1 (stereo not shown)
(d) COc1ccc2c(c1)CN(c1nccc(Oc3cccnc3)n1)S2(=O)=O
(e) O=S1(=O)c2ccccc2CN1c1ccnc(Oc2cc(Cl)cc(Cl)c2)n1
Order the records so the highest EC50 appears first and the lowest last. Put the labels in the requested order and list them out.
d, e, a, b, c
(d: 39.8 µM, e: 15.8 µM, a: 3.98 µM, b: 2.51 µM, c: 0.501 µM)

(a) CCc1cc(N2Cc3ccccc3S2(=O)=O)nc(Oc2cccnc2)n1
(b) O=S1(=O)c2ccccc2CN1c1nccc(Oc2cccnc2)n1
(c) Cc1cc(Oc2ccc(Cl)cc2)nc(N2Cc3ccccc3S2(=O)=O)c1
(d) Cc1cc(Oc2cccnc2)nc(N2Cc3ccccc3S2(=O)=O)n1
(e) O=S1(=O)c2ccccc2CN1c1cccc(Oc2cccnc2)n1
Order the records so the highest EC50 appears first and the lowest last. Put the labels in the requested order and list them out.
b, d, a, e, c
(b: 12.6 µM, d: 6.31 µM, a: 2.51 µM, e: 1.58 µM, c: 0.158 µM)

(I) O=S1(=O)c2ccccc2CN1c1ccnc(Oc2ccc(OC(F)(F)F)cc2)n1
(II) O=S1(=O)c2ccccc2CN1c1ccnc(OC2CC(F)(F)C2)n1
(III) COc1cc(Oc2cccnc2)nc(N2Cc3ccccc3S2(=O)=O)n1
Order the records so the highest EC50 appears first and the lowest last. Put the labels in the requested order and list them out.
II, I, III

(P) O=S1(=O)c2ccccc2CN1c1ccnc(Oc2ccc(OC(F)(F)F)cc2Cl)n1 [Compound 57]
(Q) O=S1(=O)c2ccccc2CN1c1ccnc(Oc2ccccc2Cl)n1
(R) O=S1(=O)c2ccccc2CN1c1ccnc(Oc2ccc(Br)cc2)n1
Order the records so the highest EC50 appears first and the lowest last. Put the labels in the requested order and list them out.
Q, R, P
